Where do these numbers come from? They come from patent US20230310428A1.

biological target: various mutants of kinase EGFR (BaF3 cell lines stably transfected with kinase) (Homo sapiens, UniProt P00533, L858R/T790M); construct: expressed in transfected cells; host or cells: BaF3; assay: Growth inhibitory activity of compounds on BaF3 cell lines stably transfected with kinase (MTS, 48 h); type: cell-based; conditions: BaF3 cell line stably transfected with EGFR L858R/T790M, read-out: L858R/ T790M growth inhibitory activity IC50
Sequence (P00533 25-1210 T790M/L858R): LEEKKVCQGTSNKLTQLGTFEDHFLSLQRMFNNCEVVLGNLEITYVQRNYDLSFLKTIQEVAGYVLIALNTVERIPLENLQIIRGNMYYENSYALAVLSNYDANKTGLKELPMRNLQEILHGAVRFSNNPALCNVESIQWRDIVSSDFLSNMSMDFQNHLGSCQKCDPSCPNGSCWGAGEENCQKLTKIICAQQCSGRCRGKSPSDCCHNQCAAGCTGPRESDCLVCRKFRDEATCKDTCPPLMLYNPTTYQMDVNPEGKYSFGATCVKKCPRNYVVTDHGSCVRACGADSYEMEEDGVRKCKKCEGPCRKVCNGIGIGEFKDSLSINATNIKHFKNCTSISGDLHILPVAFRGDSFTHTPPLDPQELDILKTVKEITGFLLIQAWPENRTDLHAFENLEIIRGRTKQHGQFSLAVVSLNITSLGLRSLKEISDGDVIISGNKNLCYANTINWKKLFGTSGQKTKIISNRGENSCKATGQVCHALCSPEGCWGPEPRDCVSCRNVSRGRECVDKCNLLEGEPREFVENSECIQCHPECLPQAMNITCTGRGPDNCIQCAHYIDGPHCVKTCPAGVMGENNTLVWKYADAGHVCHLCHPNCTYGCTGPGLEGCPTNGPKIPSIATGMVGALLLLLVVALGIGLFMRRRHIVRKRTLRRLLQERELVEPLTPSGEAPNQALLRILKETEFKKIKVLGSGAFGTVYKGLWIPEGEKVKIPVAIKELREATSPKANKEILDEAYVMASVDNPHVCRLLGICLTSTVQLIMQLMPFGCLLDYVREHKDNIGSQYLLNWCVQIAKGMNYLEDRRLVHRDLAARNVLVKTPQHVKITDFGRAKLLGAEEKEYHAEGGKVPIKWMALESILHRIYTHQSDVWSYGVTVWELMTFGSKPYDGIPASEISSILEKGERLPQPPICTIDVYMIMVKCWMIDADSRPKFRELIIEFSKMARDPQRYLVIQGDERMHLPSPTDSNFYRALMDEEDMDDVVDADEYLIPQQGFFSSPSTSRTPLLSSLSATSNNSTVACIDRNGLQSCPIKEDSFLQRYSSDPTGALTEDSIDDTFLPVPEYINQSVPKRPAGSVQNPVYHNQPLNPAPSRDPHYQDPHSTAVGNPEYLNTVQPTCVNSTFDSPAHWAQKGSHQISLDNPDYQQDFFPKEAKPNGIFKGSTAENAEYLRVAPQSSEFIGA
IC50 by entry:

COMPOUND_STRUCTURE: CCc1cc(Nc2nc(Nc3ccc4nccnc4c3N(C)S(C)(=O)=O)c3cc[nH]c3n2)c(OC(F)(F)F)cc1N1CCC(N2CCN(C)CC2)CC1
IC50: 50 to 500 nM

COMPOUND_STRUCTURE: CCc1cc(Nc2ncc(Br)c(Nc3ccc4nccnc4c3N(C)S(C)(=O)=O)n2)c(OC)cc1NCCN(C)C
IC50: 50 to 500 nM

COMPOUND_STRUCTURE: CCc1cc(Nc2ncc(Br)c(Nc3ccc4nccnc4c3N(C)S(C)(=O)=O)n2)c(OC)cc1N(C)CCN(C)C
IC50: 50 to 500 nM

----------
biological target: various mutants of kinase EGFR (BaF3 cell lines stably transfected with kinase) (Homo sapiens, UniProt P00533); construct: other: BaF3 cells stably transfected with EGFR Δ19Del; MTS, 48 h; other: BaF3 cell line stably transfected with EGFR Δ19Del; assay: Growth inhibitory activity of compounds on BaF3 cell lines stably transfected with kinase (MTS, 48 h); format: cell-based; settings: BaF3 cells stably transfected with EGFR Δ19Del, read-out: IC50, growth inhibition, Δ19Del
Sequence (P00533 with tags, fused parts or gaps DEL746-750): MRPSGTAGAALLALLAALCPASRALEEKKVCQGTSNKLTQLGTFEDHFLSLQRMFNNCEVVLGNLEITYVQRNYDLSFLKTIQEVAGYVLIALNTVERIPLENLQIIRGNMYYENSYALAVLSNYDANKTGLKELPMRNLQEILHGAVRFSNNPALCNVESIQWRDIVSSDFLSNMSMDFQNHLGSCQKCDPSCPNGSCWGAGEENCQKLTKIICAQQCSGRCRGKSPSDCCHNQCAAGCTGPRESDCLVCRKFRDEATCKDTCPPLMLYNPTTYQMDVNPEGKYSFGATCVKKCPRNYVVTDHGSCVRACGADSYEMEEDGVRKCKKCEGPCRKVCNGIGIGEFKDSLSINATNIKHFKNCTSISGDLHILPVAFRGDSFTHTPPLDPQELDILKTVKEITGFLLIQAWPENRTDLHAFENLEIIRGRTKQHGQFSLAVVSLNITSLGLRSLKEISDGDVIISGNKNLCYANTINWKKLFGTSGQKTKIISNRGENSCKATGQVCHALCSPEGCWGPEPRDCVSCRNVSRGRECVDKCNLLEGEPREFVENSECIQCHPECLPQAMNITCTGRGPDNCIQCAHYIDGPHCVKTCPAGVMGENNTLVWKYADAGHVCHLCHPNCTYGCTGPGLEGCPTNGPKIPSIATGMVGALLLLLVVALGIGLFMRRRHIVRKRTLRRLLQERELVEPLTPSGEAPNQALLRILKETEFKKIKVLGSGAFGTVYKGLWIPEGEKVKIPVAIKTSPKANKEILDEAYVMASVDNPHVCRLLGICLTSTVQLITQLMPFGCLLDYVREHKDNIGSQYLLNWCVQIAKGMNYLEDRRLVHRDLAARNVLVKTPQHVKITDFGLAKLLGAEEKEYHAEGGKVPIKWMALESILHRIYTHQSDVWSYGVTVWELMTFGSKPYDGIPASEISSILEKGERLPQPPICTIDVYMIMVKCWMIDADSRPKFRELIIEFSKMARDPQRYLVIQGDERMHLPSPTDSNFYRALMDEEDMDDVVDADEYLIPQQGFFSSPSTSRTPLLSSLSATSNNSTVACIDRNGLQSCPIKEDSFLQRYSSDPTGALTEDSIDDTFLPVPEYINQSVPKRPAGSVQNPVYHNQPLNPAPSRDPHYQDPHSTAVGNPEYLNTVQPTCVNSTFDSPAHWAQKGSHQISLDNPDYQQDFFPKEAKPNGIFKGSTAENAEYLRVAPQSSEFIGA

COMPOUND: COc1cc(N2CCC(N3CCN(C)CC3)CC2)c(Cc2ccccc2)cc1Nc1ncc(F)c(Nc2ccc3nccnc3c2N(C)S(C)(=O)=O)n1
IC50: 500 to 2500 nM
//
COMPOUND: COc1cc(N2CCC(N(C)C)C2)c(C)cc1Nc1ncc(Br)c(Nc2ccc3nccnc3c2N(C)S(C)(=O)=O)n1 (stereo not drawn)
IC50: 50 to 500 nM
//
COMPOUND: CCc1cc(Nc2ncc(OC)c(Nc3ccc4nccnc4c3N(C)S(C)(=O)=O)n2)c(OC)cc1N1CCN(C)CC1
IC50: ≤ 50 nM
//
COMPOUND: CCc1cc(Nc2ncc(Cl)c(Nc3ccc4nccnc4c3N(C)S(=O)(=O)C3CC3)n2)c(OC(F)(F)F)cc1N1CCC(N2CCN(C)CC2)CC1
IC50: 50 to 500 nM
//
COMPOUND: CCc1cc(Nc2ncc(Cl)c(Nc3ccc4nccnc4c3N(C)S(=O)(=O)C(C)C)n2)c(OC)cc1N1CCN(C)CC1
IC50: 50 to 500 nM
//
COMPOUND: CCc1cc(Nc2ncc(F)c(Nc3ccc4nccnc4c3N(C)S(C)(=O)=O)n2)c(OC)cc1N1CCC(N(C)C)CC1
IC50: ≤ 50 nM
//
COMPOUND: COc1cc(N2CCC(N3CCN(C)CC3)CC2)c(C)cc1Nc1ncc(Br)c(Nc2ccc3nccnc3c2N(C2CC2)S(C)(=O)=O)n1
IC50: ≤ 50 nM
//
COMPOUND: CCc1cc(Nc2ncc(Cl)c(Nc3ccc4nccnc4c3N(C3CC3)S(C)(=O)=O)n2)c(OC)cc1N1CCN(C)CC1
IC50: ≤ 50 nM
//
COMPOUND: CN1CCN(C2CCN(c3cccc(Nc4ncc(Br)c(Nc5ccc6nccnc6c5N(C)S(C)(=O)=O)n4)c3)CC2)CC1
IC50: 50 to 500 nM
//
COMPOUND: CCc1cc(Nc2ncc([N+](=O)[O-])c(Nc3ccc4nccnc4c3N(C)S(C)(=O)=O)n2)c(OC)cc1N1CCC(N(C)C)C1 (stereo not drawn)
IC50: 50 to 500 nM
//
COMPOUND: CCN(c1c(Nc2nc(Nc3cc(C)c(N4CCC(N5CCN(C)CC5)CC4)nc3OC)ncc2Cl)ccc2nccnc12)S(C)(=O)=O
IC50: 500 to 2500 nM
//
COMPOUND: COc1cc(N2CCC(N3CCN(C)CC3)CC2)ccc1Nc1ncc(C#N)c(Nc2ccc3nccnc3c2N(C)S(C)(=O)=O)n1
IC50: 500 to 2500 nM
//
COMPOUND: CCc1cc(Nc2ncc(Cl)c(Nc3ccc4nccnc4c3N(C)S(=O)(=O)CC)n2)c(OC)cc1N1CCC(N2CCN(C)CC2)CC1
IC50: ≤ 50 nM
//
COMPOUND: COc1cc(N2CCC(N(C)C)CC2)c(C)cc1Nc1ncc(Br)c(Nc2ccc3nccnc3c2N(C)S(=O)(=O)C2CC2)n1
IC50: 50 to 500 nM
//
COMPOUND: CCc1cc(Nc2ncc(C(F)(F)F)c(Nc3ccc4nccnc4c3N(C)S(C)(=O)=O)n2)c(OC)nc1N1CCC(N2CCN(C)CC2)CC1
IC50: 50 to 500 nM
//
COMPOUND: CCc1cc(Nc2ncc(Cl)c(Nc3ccc4nccnc4c3N(CC)S(C)(=O)=O)n2)c(OC)cc1N1CCN(C)CC1
IC50: ≤ 50 nM
//
COMPOUND: CCc1cc(Nc2ncc(Cl)c(Nc3ccc4nccnc4c3N(C)S(=O)(=O)C(F)(F)F)n2)c(OC)cc1N1CCN(C)CC1
IC50: 50 to 500 nM
//
COMPOUND: CCc1cc(Nc2ncc(C)c(Nc3ccc4nccnc4c3N(C)S(C)(=O)=O)n2)c(OC)cc1N1CCC(N(C)C)C1 (stereo not drawn)
IC50: ≤ 50 nM

----------
Target: various mutants of kinase EGFR (BaF3 cell lines stably transfected with kinase) (Homo sapiens, UniProt P00533, T790M, form not given)
Construct: other: BaF3 cells stably transfected with EGFR Δ19Del/T790M; MTS, 48 h; other: BaF3 cell line stably transfected with EGFR Δ19Del/T790M; MTS, 48
Sequence (P00533 with tags, fused parts or gaps DEL746-750/T790M, form open): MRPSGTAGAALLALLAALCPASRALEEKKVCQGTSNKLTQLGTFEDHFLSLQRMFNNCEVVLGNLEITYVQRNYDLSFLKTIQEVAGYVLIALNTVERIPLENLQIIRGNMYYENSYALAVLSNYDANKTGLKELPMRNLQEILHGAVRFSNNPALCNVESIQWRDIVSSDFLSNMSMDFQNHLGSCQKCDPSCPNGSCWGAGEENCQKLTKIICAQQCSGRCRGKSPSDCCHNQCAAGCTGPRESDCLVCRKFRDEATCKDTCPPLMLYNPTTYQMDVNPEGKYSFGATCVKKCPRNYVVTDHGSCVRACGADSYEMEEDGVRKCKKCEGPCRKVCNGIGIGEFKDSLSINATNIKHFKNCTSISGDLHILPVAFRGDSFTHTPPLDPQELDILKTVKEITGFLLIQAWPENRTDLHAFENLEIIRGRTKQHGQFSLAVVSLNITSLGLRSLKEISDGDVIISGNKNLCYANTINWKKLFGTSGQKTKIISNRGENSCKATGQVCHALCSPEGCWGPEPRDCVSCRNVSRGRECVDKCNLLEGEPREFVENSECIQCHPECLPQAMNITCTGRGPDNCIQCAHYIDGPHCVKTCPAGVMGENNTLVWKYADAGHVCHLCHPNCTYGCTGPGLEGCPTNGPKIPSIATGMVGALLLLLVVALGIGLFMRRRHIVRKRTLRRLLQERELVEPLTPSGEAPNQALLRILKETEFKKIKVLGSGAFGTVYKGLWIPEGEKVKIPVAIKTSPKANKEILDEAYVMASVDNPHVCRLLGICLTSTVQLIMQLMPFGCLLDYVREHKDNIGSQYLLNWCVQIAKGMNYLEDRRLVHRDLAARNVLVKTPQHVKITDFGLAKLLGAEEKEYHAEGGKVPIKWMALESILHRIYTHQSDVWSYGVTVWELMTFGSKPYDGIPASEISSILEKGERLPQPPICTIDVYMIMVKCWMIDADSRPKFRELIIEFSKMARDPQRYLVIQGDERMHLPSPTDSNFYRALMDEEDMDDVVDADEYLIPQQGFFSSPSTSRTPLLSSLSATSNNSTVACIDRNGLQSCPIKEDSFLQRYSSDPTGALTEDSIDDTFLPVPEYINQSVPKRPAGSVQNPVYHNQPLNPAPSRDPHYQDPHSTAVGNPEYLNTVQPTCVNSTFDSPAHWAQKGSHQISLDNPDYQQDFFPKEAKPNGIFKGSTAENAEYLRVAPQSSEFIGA
Assay: Growth inhibitory activity of compounds on BaF3 cell lines stably transfected with kinase (MTS, 48 h)
Type: cell-based
Details: BaF3 cell line stably transfected with EGFR Δ19Del/T790M, read-out: Δ19Del/ T790M growth inhibitory activity IC50
Experimental: The activity of compounds against various mutants of kinase EGFR was evaluated by their effect of inhibiting growth of BaF3 cell lines stably transfected with kinase. The specific test method was given as follows: […] 3) Compound test: cells were incubated into a 96-well culture plate, the volume of cytosol was 90 µL, and then 10 µL of the compound at each gradient concentration was added. […] OD values at 490 nm were measured by a microplate reader (VARIOSKAN FLASH, Thermo). […]
QUANTITY_KIND: IC50

MOLECULE: COc1cc(N2CCC(N(C)C)C2)c(C)cc1Nc1nc(Nc2ccc3nccnc3c2N(C)S(C)(=O)=O)c2sccc2n1 (stereo not drawn) [II-1-14]
ENDPOINT_RESULT: 500 to 2500 nM

MOLECULE: COc1cc(N2CCC(N3CCN(C)CC3)CC2)ccc1Nc1ncc(C(C)C)c(Nc2ccc3nccnc3c2N(C)S(C)(=O)=O)n1 [Compound I-325]
ENDPOINT_RESULT: 50 to 500 nM

MOLECULE: CCc1cc(Nc2nc(Nc3ccc4nccnc4c3N(C)S(C)(=O)=O)c3occc3n2)c(OC)cc1N1CCC(N2CCN(C)CC2)CC1 [II-1-26]
ENDPOINT_RESULT: ≤ 50 nM

MOLECULE: CN1CCN(C2CCN(c3c(F)cc(Nc4ncc(Br)c(Nc5ccc6nccnc6c5N(C)S(C)(=O)=O)n4)cc3F)CC2)CC1 [Compound I-354]
ENDPOINT_RESULT: ≤ 50 nM

MOLECULE: COc1cc(N2CCN(C)CC2)c(C)cc1Nc1nc(Nc2ccc3nccnc3c2N(C)S(C)(=O)=O)c2[nH]ccc2n1 [II-1-33]
ENDPOINT_RESULT: 500 to 2500 nM

MOLECULE: CCc1cc(Nc2ncc(Br)c(Nc3ccc4nccnc4c3NS(C)(=O)=O)n2)c(OC)cc1N1CCN(C)CC1 [Compound I-411]
ENDPOINT_RESULT: ≤ 50 nM

MOLECULE: CCOc1cnc(Nc2cc(CC)c(N3CCC(N4CCN(C)CC4)CC3)nc2OC)nc1Nc1ccc2nccnc2c1N(C)S(C)(=O)=O [Compound I-338]
ENDPOINT_RESULT: 50 to 500 nM

MOLECULE: COc1cc(N2CCC(N3CCN(C)CC3)CC2)c(C2CC2)cc1Nc1ncc(Br)c(Nc2ccc3nccnc3c2NS(C)(=O)=O)n1 [Compound I-407]
ENDPOINT_RESULT: ≤ 50 nM

MOLECULE: CCc1cc(Nc2ncc(CC)c(Nc3ccc4nccnc4c3N(C)S(C)(=O)=O)n2)c(OC)cc1N1CCC(N(C)C)CC1 [Compound I-323]
ENDPOINT_RESULT: ≤ 50 nM

MOLECULE: CN1CCN(C2CCN(c3ccc(Nc4nc(Nc5ccc6nccnc6c5N(C)S(C)(=O)=O)c5occc5n4)c(OC(F)(F)F)c3)CC2)CC1 [II-1-40]
ENDPOINT_RESULT: 50 to 500 nM

MOLECULE: COc1cc(N2CCC(N3CCN(C)CC3)CC2)c(C)cc1Nc1nc(Nc2ccc3nccnc3c2N(C)S(C)(=O)=O)c2cc[nH]c2n1 [II-2-5]
ENDPOINT_RESULT: ≤ 50 nM

MOLECULE: COc1cc(N2CCC(N3CCN(C)CC3)CC2)c(C)cc1Nc1ncc(Br)c(Nc2ccc3nccnc3c2NS(=O)(=O)C(C)C)n1 [Compound I-414]
ENDPOINT_RESULT: ≤ 50 nM

MOLECULE: CCc1cnc(Nc2cc(F)c(N3CCC(N4CCN(C)CC4)CC3)c(F)c2)nc1Nc1ccc2nccnc2c1N(C)S(C)(=O)=O [Compound I-349]
ENDPOINT_RESULT: ≤ 50 nM

MOLECULE: COc1ccc(N2CCC(O)CC2)cc1Nc1ncc(F)c(Nc2ccc3nccnc3c2N(C)S(C)(=O)=O)n1 [Compound I-367]
ENDPOINT_RESULT: 500 to 2500 nM

MOLECULE: CCc1cc(Nc2ncc(Br)c(Nc3ccc4nccnc4c3NS(C)(=O)=O)n2)c(OC)cc1N1CCC(N(C)C)C1 (stereo not drawn) [Compound I-412]
ENDPOINT_RESULT: ≤ 50 nM

MOLECULE: CCc1cc(Nc2ncc(C(C)C)c(Nc3ccc4nccnc4c3N(C)S(C)(=O)=O)n2)c(OC)cc1N1CCC(N(C)C)CC1 [Compound I-330]
ENDPOINT_RESULT: ≤ 50 nM

MOLECULE: CN(c1c(Nc2nc(Nc3cccc(N4CCC(N5CCCC5)CC4)c3)ncc2Br)ccc2nccnc12)S(C)(=O)=O [Compound I-381]
ENDPOINT_RESULT: ≤ 50 nM

MOLECULE: COc1ccc(N2CCC(O)CC2)cc1Nc1ncc(Cl)c(Nc2ccc3nccnc3c2N(C)S(C)(=O)=O)n1 [Compound I-368]
ENDPOINT_RESULT: 50 to 500 nM

MOLECULE: CCc1cc(Nc2ncc(Br)c(Nc3ccc4nccnc4c3NS(C)(=O)=O)n2)c(OC)cc1N1CCC(N(C)C)CC1 [Compound I-410]
ENDPOINT_RESULT: ≤ 50 nM

MOLECULE: CCS(=O)(=O)N(C)c1c(Nc2nc(Nc3cc(N4CCC(O)CC4)ccc3OC)ncc2Cl)ccc2nccnc12 [Compound I-372]
ENDPOINT_RESULT: 50 to 500 nM

MOLECULE: CCc1cc(Nc2nc(Nc3ccc4nccnc4c3N(C)S(C)(=O)=O)c3occc3n2)c(OC)nc1N1CCC(N2CCN(C)CC2)CC1 [II-1-39]
ENDPOINT_RESULT: 50 to 500 nM
